# Test system: Escherichia coli TOP10
# Experimental Details: shrunken log2 fold change of peptide-encoding DNA abundance (4.5 h post-induction vs induction); higher = less antimicrobial activity (less host growth inhibition)
# Test Parameters: time post-induction: 4.5 h; library: site-saturation at positions 5, 18, 19, 20
Give shrunken log2 fold change for every item shown.
Give bare numbers.

1) RRIRNRPPRLPRPRPRPASWPRP : 0.369

Please state shrunken log2 fold change for every sequence in the list that follows.
1. RRIRFRPPRLPRPRPRPKFPPRP
2. RRIRDRPPRLPRPRPRPWMRPRP
3. RRIRDRPPRLPRPRPRPCEFPRP
4. RRIRKRPPRLPRPRPRPIDNPRP
5. RRIRGRPPRLPRPRPRPTGCPRP

-0.0265
0.013
0.013
0.0107
0.562

Parameters: items (list). Returns: shrunken log2 fold change for each item.
1. RRIRARPPRLPRPRPRPHRSPRP
2. RRIRMRPPRLPRPRPRPHACPRP
3. RRIRPRPPRLPRPRPRPTSRPRP
4. RRIRVRPPRLPRPRPRPMTRPRP
5. RRIRARPPRLPRPRPRPQYNPRP
6. RRIRARPPRLPRPRPRPYQDPRP

1. -0.0655
2. -0.0695
3. -0.0592
4. -0.123
5. -0.334
6. -0.00221

List shrunken log2 fold change for every entry below, keeping the order given.
1. RRIRQRPPRLPRPRPRPSRWPRP
2. RRIRQRPPRLPRPRPRPRSLPRP
3. RRIRHRPPRLPRPRPRPPNNPRP

1. -0.0126
2. -0.0177
3. -0.58

###

# System: Escherichia coli TOP10
# Experimental Details: shrunken log2 fold change of peptide-encoding DNA abundance (4.5 h post-induction vs induction); higher = less antimicrobial activity (less host growth inhibition)
# Test Parameters: time post-induction: 4.5 h; library: site-saturation at positions 5, 18, 19, 20
Measured Property: shrunken log2 fold change
One number for each entry.

1) RRIRTRPPRLPRPRPRPGYIPRP : -0.288
2) RRIRLRPPRLPRPRPRPLRQPRP : 0.385

For every record below, what is its shrunken log2 fold change?
1. RRIRERPPRLPRPRPRPFQMPRP
2. RRIRSRPPRLPRPRPRPPMKPRP
3. RRIRNRPPRLPRPRPRPEEPPRP
4. RRIRARPPRLPRPRPRPVGGPRP
5. RRIRTRPPRLPRPRPRPDWQPRP

-0.112
0.194
0.0512
0.571
-0.0206

Working through the 7 sequences below one at a time, give shrunken log2 fold change for each.
1. RRIRYRPPRLPRPRPRPVWNPRP
2. RRIRERPPRLPRPRPRPRPMPRP
3. RRIRCRPPRLPRPRPRPQCDPRP
4. RRIRARPPRLPRPRPRPVEFPRP
5. RRIRIRPPRLPRPRPRPQQPPRP
6. RRIRKRPPRLPRPRPRPYYDPRP
7. RRIRPRPPRLPRPRPRPMANPRP

1. -0.136
2. -0.0942
3. -0.264
4. 0.108
5. 0.349
6. -0.204
7. 1.35

State the recorded shrunken log2 fold change for every item in the following list.
1. RRIRIRPPRLPRPRPRPKCPPRP
2. RRIRWRPPRLPRPRPRPVQMPRP
3. RRIRIRPPRLPRPRPRPTNMPRP
4. RRIRCRPPRLPRPRPRPTTQPRP
5. RRIRARPPRLPRPRPRPCIKPRP

[-0.263, 0.159, -0.427, 0.0242, 0.126]

###

# System: Escherichia coli TOP10
# Experimental Details: shrunken log2 fold change of peptide-encoding DNA abundance (4.5 h post-induction vs induction); higher = less antimicrobial activity (less host growth inhibition)
# Test Parameters: time post-induction: 4.5 h; library: site-saturation at positions 5, 18, 19, 20
Kindly state shrunken log2 fold change for each of the entries shown.
One number for each entry.

Take a look at these entries with their results.
1) RRIRYRPPRLPRPRPRPNHFPRP : -0.0628
2) RRIRSRPPRLPRPRPRPVKKPRP : 0.0525
3) RRIRYRPPRLPRPRPRPIYAPRP : -0.461
4) RRIRGRPPRLPRPRPRPERNPRP : 0.855

The following sequences each have a reported value; give each one's shrunken log2 fold change.
1. RRIRARPPRLPRPRPRPNTIPRP
2. RRIRKRPPRLPRPRPRPLPYPRP

[-0.0317, -0.0627]

// batch mode: one shrunken log2 fold change value per listed entry
1. RRIRERPPRLPRPRPRPNREPRP
2. RRIRRRPPRLPRPRPRPYPIPRP

1: -0.0209; 2: -0.269

###

# Tested on: Escherichia coli TOP10
# Experimental Details: shrunken log2 fold change of peptide-encoding DNA abundance (4.5 h post-induction vs induction); higher = less antimicrobial activity (less host growth inhibition)
# Test Parameters: time post-induction: 4.5 h; library: site-saturation at positions 5, 18, 19, 20
We use 0.1 as the dividing line for shrunken log2 fold change: on or above the line is met, below is not met.

Completed entries (count: 5):
1. RRIRERPPRLPRPRPRPDSFPRP : not met
2. RRIRARPPRLPRPRPRPEGIPRP : not met
3. RRIRFRPPRLPRPRPRPRGWPRP : met
4. RRIRPRPPRLPRPRPRPPLSPRP : met
5. RRIRTRPPRLPRPRPRPYRHPRP : not met

# check: shrunken log2 fold change of RRIRDRPPRLPRPRPRPSRLPRP is greater than or equal to 0.1
not met

Same question for RRIRLRPPRLPRPRPRPECEPRP please.
met

###

# System: Escherichia coli TOP10
# Experimental Details: shrunken log2 fold change of peptide-encoding DNA abundance (4.5 h post-induction vs induction); higher = less antimicrobial activity (less host growth inhibition)
# Test Parameters: time post-induction: 4.5 h; library: site-saturation at positions 5, 18, 19, 20
Please go through the items and note down their shrunken log2 fold change.
Give bare numbers.

Could you report shrunken log2 fold change for every entry in the following list?
1. RRIRERPPRLPRPRPRPFMPPRP
2. RRIRQRPPRLPRPRPRPKRSPRP

1. -0.777
2. 0.0578

Value sought for every listed sequence: shrunken log2 fold change.
1. RRIRPRPPRLPRPRPRPDGEPRP
2. RRIRKRPPRLPRPRPRPVHPPRP
3. RRIRQRPPRLPRPRPRPPCPPRP
4. RRIRYRPPRLPRPRPRPLKFPRP
5. RRIRMRPPRLPRPRPRPQTAPRP
6. RRIRGRPPRLPRPRPRPWWFPRP

1. 0.0766
2. 0.189
3. 0.085
4. -0.42
5. 0.524
6. -0.03

###

# Tested on: Escherichia coli TOP10
# Experimental Details: shrunken log2 fold change of peptide-encoding DNA abundance (4.5 h post-induction vs induction); higher = less antimicrobial activity (less host growth inhibition)
# Test Parameters: time post-induction: 4.5 h; library: site-saturation at positions 5, 18, 19, 20
Measured Property: shrunken log2 fold change
Numbers only.

// solved cases for shrunken log2 fold change follow
1) RRIRTRPPRLPRPRPRPYFIPRP : -0.872
2) RRIRQRPPRLPRPRPRPVKSPRP : 0.169
3) RRIRLRPPRLPRPRPRPVVAPRP : 0.0705
4) RRIRLRPPRLPRPRPRPNFKPRP : -0.206
5) RRIRPRPPRLPRPRPRPNFWPRP : 0.153

For each of the sequences below, state shrunken log2 fold change.
1. RRIRARPPRLPRPRPRPEHDPRP
2. RRIRKRPPRLPRPRPRPHIKPRP
3. RRIRGRPPRLPRPRPRPYMMPRP
4. RRIRARPPRLPRPRPRPVGTPRP
5. RRIRDRPPRLPRPRPRPFLAPRP
6. RRIRGRPPRLPRPRPRPEMIPRP
7. RRIRPRPPRLPRPRPRPVKTPRP
8. RRIRRRPPRLPRPRPRPWKQPRP

-0.0905
-0.0411
-0.232
0.441
0.341
1.92
0.0289
-0.0204

###

Consider the following sequences; for each one, report its shrunken log2 fold change.
# System: Escherichia coli TOP10;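 also: peptides expressed intracellularly from a pBAD plasmid library in pooled LB shake-flask culture, induced with 0.3% L-arabinose, DNA abundance read by NGS, three biological replicates, DESeq2 with apeglm shrinkage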
# Experimental Details: shrunken log2 fold change of peptide-encoding DNA abundance (4.5 h post-induction vs induction); higher = less antimicrobial activity (less host growth inhibition)
# Test Parameters: time post-induction: 4.5 h; library: site-saturation at positions 5, 18, 19, 20

Here are 4 sequences together with their reported answers.
1. RRIRNRPPRLPRPRPRPITRPRP : -0.0765
2. RRIRRRPPRLPRPRPRPNNRPRP : -0.0987
3. RRIRWRPPRLPRPRPRPFNDPRP : -0.153
4. RRIRPRPPRLPRPRPRPEFAPRP : 0.602

I'm hoping you can list shrunken log2 fold change for every sequence here, please.
1. RRIRTRPPRLPRPRPRPGCDPRP
2. RRIRARPPRLPRPRPRPLPEPRP
3. RRIRARPPRLPRPRPRPNYWPRP
4. RRIRGRPPRLPRPRPRPPAGPRP
5. RRIRMRPPRLPRPRPRPWSEPRP

1: 0.256; 2: 0.542; 3: 0.0678; 4: 1.37; 5: 0.0897

Would you be so kind as to report shrunken log2 fold change for each listed record?
1. RRIRRRPPRLPRPRPRPGVLPRP
2. RRIRRRPPRLPRPRPRPAVLPRP
3. RRIRPRPPRLPRPRPRPVGGPRP

1: 0.465; 2: -0.00596; 3: 0.408

Sourced from the supplement of paper PMC9112550
